GI50 tested on HCT116: recorded values
Quick note: number first, unit second.

Worked cases, answers included:
[[record]]
molecule = "CCOc1ccc(-c2oc(CCCCCCC(=O)NO)nc2-c2ccccc2)cc1 [Example 8]"
experimental_target = "HCT116"
result = "1.2 µM"

[[record]]
molecule = "O=C(CCCCCCc1nc(-c2ccccc2)c(-c2ccccc2F)o1)NO [Example 5]"
experimental_target = "HCT116"
result = "10.7 µM"

[[record]]
molecule = "COc1ccc(-c2oc(CCCCCCC(=O)NO)nc2-c2ccccc2OC)cc1 [Example 11]"
experimental_target = "HCT116"
result = "2.4 µM"

[[record]]
molecule = "O=C(CCCCCCc1nc(-c2ccccc2)c(-c2cccc(F)c2)o1)NO [Example 6]"
experimental_target = "HCT116"
result = "9.5 µM"

[[record]]
molecule = "O=C(CCCCCCc1nc(-c2ccccc2)c(-c2ccccc2)o1)NO [Example 4]"
experimental_target = "HCT116"
result = "3.5 µM"

[[record]]
molecule = "COc1cccc(-c2oc(CCCCCCC(=O)NO)nc2-c2ccccc2)c1 [Example 3]"
experimental_target = "HCT116"
result = "6.5 µM"


Entry COc1ccc(-c2oc(CCCCCCC(=O)NO)nc2-c2ccccc2)cc1 [Example 1] ; assay system HCT116; GI50 recorded at 3 µM

The recorded GI50 with HCT116 for CCOc1ccc(-c2oc(CCCCCCC(=O)NO)nc2-c2ccncc2)cc1 [Example 19] was 4 µM

Observed GI50 on HCT116, entry O=C(CCCCCCc1nc(-c2ccccc2)c(-c2ccncc2)o1)NO [Example 17] , equals 5.4 µM

###

- System: HCT116
Recorded measurements of GI50, one per entry
The response must be a number in µM with no trailing unit.

[[record]]
sample_smiles = "COc1ccc(-c2oc(CCCCCCC(=O)NO)nc2-c2ccncc2)cc1"
experimental_target = "HCT116"
measured_number = 3.8

[[record]]
sample_smiles = "Cc1ccc(-c2oc(CCCCCCC(=O)NO)nc2-c2ccccc2)cc1"
experimental_target = "HCT116"
measured_number = 2.7


Here is the next item to consider.
Form: item `CN(C)c1ccc(-c2nc(CCCCCCC(=O)NO)oc2-c2cccnc2)cc1` ; test system HCT116; GI50: 8.7

###

# key: entry, value: solubility
- METHOD NOTES: Solubility
- Type: physicochemical
Write the answer as a number in µg/mL, unit excluded.

Guide cases for solubility, answers given:
[[record]]
compound = "O=C(CCCCCCc1nc(-c2ccccc2)c(-c2ccc(O)cc2)o1)NO [Example 20]"
measurement_type = "solubility"
measured_number = 300

[[record]]
compound = "CCOc1ccc(-c2oc(CCCCCCC(=O)NO)nc2-c2ccccc2)cc1 [Example 8]"
measurement_type = "solubility"
measured_number = 200

[[record]]
compound = "O=C(CCCCCCc1nc(-c2ccccc2)c(-c2ccccc2F)o1)NO [Example 5]"
measurement_type = "solubility"
measured_number = 300


Per the record, O=C(CCCCCCc1nc(-c2ccccc2)c(-c2cccc(F)c2)o1)NO [Example 6] has solubility of 400

###

- Tested on: HDAC
- METHOD NOTES: Inhibition of HDAC activity (fluorometric, HeLa nuclear extract)
- Type: biochemical, human
- PROTOCOL CONDITIONS: 30 min room temperature
- Experimental: In order to determine inhibitory activity of a compound in accordance with the present invention on HDAC, evaluation was carried out using an aminocoumarin derivative of ω-acetylated lysine as a substrate for an enzyme. As an enzyme source, a nuclear extract obtained from human cervical cancer cell line HeLa cells was used. […] The enzyme activity-inhibitory concentration of the compound added was determined using a fluorometer. […]
MEASUREMENT TYPE: pIC50
To interpret pIC50, take it as minus log10 of a concentration measured in moles per litre.

Some molecules with known pIC50 results, for comparison:
[[record]]
sample_smiles = "CN(C)c1ccc(-c2nc(CCCCCCC(=O)NO)oc2-c2cccnc2)cc1"
measured_number = 8.53

[[record]]
sample_smiles = "O=C(CCCCCCc1nc(-c2ccccc2)c(-c2cccc(F)c2)o1)NO"
measured_number = 8.83

[[record]]
sample_smiles = "O=C(CCCCCCc1nc(-c2ccccc2)c(-c2ccc(F)cc2)o1)NO"
measured_number = 8.30

[[record]]
sample_smiles = "COc1ccc(-c2oc(CCCCCCC(=O)NO)nc2-c2ccccc2)cc1"
measured_number = 8.97

[[record]]
sample_smiles = "COc1ccccc1-c1oc(CCCCCCC(=O)NO)nc1-c1ccccc1"
measured_number = 8.18


Proceeding to the next molecule to report its pIC50.
Test item `O=C(CCCCCCc1nc(-c2ccccc2)c(-c2ccccc2)o1)NO` ; HDAC; reported pIC50 was 8.70

###

- System: HCT116
Mark Fulfilled for GI50 under 6 µM, Not fulfilled if at or over.

[[record]]
compound = "O=C(CCCCCCc1nc(-c2ccccc2)c(-c2ccc(O)cc2)o1)NO [Example 20]"
classification = "Fulfilled"


Determine if CN(C)c1ccc(-c2oc(CCCCCCC(=O)NO)nc2-c2ccccc2)cc1 [Example 12] shows GI50 strictly lower than 6 µM.
Not fulfilled

Report whether reported GI50 is lower than 6 µM (strictly) for COc1ccccc1-c1oc(CCCCCCC(=O)NO)nc1-c1ccccc1 [Example 2]
Not fulfilled

Would you kindly verify if GI50 of COc1ccc(-c2nc(CCCCCCC(=O)NO)oc2-c2cccnc2)cc1 [Example 13] is strictly less than 6 µM?
Fulfilled

Below 6 µM on GI50? Entry COc1ccc(-c2nc(CCCCCCC(=O)NO)oc2-c2ccc(OC)cc2)cc1 [Example 10]
Fulfilled

###

- METHOD NOTES: Solubility
- Format: physicochemical
Think of 900 µg/mL as a floor: if solubility stands on it or above, it is fulfilled; beneath it, not fulfilled.

Before answering, review these 4 worked examples.
[[record]]
compound = "CN(C)c1ccc(-c2oc(CCCCCCC(=O)NO)nc2-c2ccccc2)cc1 [Example 12]"
classification = "not fulfilled"

[[record]]
compound = "COc1ccc(-c2oc(CCCCCCC(=O)NO)nc2-c2ccccc2OC)cc1 [Example 11]"
classification = "not fulfilled"

[[record]]
compound = "COc1ccc(-c2oc(CCCCCCC(=O)NO)nc2-c2ccccc2)cc1 [Example 1]"
classification = "not fulfilled"

[[record]]
compound = "CN(C)c1ccc(-c2nc(CCCCCCC(=O)NO)oc2-c2cccnc2)cc1 [Example 14]"
classification = "fulfilled"


Turning now to a further record.
Is it the case that Cc1ccc(-c2oc(CCCCCCC(=O)NO)nc2-c2ccccc2)cc1 [Example 7] has solubility reaching or exceeding 900 µg/mL?
not fulfilled

###

- Test system: HDAC
- METHOD NOTES: Inhibition of HDAC activity (fluorometric, HeLa nuclear extract)
- Type: biochemical, human
- PROTOCOL CONDITIONS: 30 min room temperature
MEASUREMENT TYPE: log10 of IC50 (log10 of the value in nM)
Each number you see is log10 of IC50, and the unit inside the log is nM.

Reported log10 of IC50 of `COc1ccc(-c2oc(CCCCCCC(=O)NO)nc2-c2ccccc2OC)cc1` : 0.86

Form: compound = `Cc1ccc(-c2oc(CCCCCCC(=O)NO)nc2-c2ccccc2)cc1` ; log10 of IC50 = 0.30

Recorded result, `CCOc1ccc(-c2oc(CCCCCCC(=O)NO)nc2-c2ccccc2)cc1` , log10 of IC50: 0.08

response.value for `COc1ccc(-c2oc(CCCCCCC(=O)NO)nc2-c2ccncc2)cc1` (field: log10 of IC50) = 1.15

###

- METHOD NOTES: Solubility
- Type: physicochemical
Measured solubility, listed per entry.
Enter your answer as a number in mg/mL; do not include the unit.

[[record]]
sample_smiles = "O=C(CCCCCCc1nc(-c2ccccc2)c(-c2ccncc2)o1)NO"
measured_number = 0.9


Lab note: measured solubility of `COc1ccc(-c2oc(CCCCCCC(=O)NO)nc2-c2ccncc2)cc1` was 0.9

solubility measured on `COc1ccc(-c2nc(CCCCCCC(=O)NO)oc2-c2cccnc2)cc1` = 0.9

###

- System: HDAC
- METHOD NOTES: Inhibition of HDAC activity (fluorometric, HeLa nuclear extract)
- Assay type: biochemical, human
- PROTOCOL CONDITIONS: 30 min room temperature
Hi! Could you tag entries with IC50 below 5 nM as satisfied, and those at or above as not satisfied? Much appreciated.

Reference set, count: 4
[[record]]
sample_smiles = "O=C(CCCCCCc1nc(-c2ccc(F)cc2)c(-c2cccnc2)o1)NO"
classification = "not satisfied"

[[record]]
sample_smiles = "O=C(CCCCCCc1nc(-c2cccc(F)c2)c(-c2cccnc2)o1)NO"
classification = "not satisfied"

[[record]]
sample_smiles = "O=C(CCCCCCc1nc(-c2ccccc2)c(-c2ccncc2)o1)NO"
classification = "not satisfied"

[[record]]
sample_smiles = "CCOc1ccc(-c2oc(CCCCCCC(=O)NO)nc2-c2ccncc2)cc1"
classification = "satisfied"


Shifting focus to the molecule that follows.
Would you kindly verify if IC50 of `O=C(CCCCCCc1nc(-c2ccccc2)c(-c2ccccc2F)o1)NO` is strictly less than 5 nM?
satisfied

Reference source for all entries: patent US8039634B2
